- tested target: MRGPRX2 in CHEM-1 cells (human) (UniProt Q96LB1)
- Sequence (Q96LB1 whole entry): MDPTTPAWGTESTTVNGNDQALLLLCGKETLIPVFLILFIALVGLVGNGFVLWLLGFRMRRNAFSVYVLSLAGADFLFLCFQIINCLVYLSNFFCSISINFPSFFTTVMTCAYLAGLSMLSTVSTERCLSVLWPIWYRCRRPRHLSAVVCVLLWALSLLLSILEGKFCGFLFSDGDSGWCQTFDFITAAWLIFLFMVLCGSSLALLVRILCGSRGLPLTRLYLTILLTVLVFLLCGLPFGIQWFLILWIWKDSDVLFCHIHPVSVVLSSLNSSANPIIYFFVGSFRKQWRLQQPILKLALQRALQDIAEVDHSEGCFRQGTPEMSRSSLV
quantity measured: EC50, calcium mobilization, CHEM1 cells overexpressing MRGPRX2 (nM)
Supply the numeric figure in nM, leaving out any unit text.

Exam item: Request the reported EC50, calcium mobilization, CHEM1 cells overexpressing MRGPRX2 associated with CXCL14(1-11/18-77) (domain or fragment) SKCKCSRKGPKKKLEMKPKYPHCEEKMVIITTKSVSRYRGQEHCLHPKLQSTKRFIKWYNAWNEKRRVYEE
Marked response: 379

Exam item: Request the reported EC50, calcium mobilization, CHEM1 cells overexpressing MRGPRX2 associated with CXCL14(1-32/56-77) (domain or fragment) SKCKCSRKGPKIRYSDVKKLEMKPKYPHCEEKQSTKRFIKWYNAWNEKRRVYEE
Marked response: 678

Exam item: Request the reported EC50, calcium mobilization, CHEM1 cells overexpressing MRGPRX2 associated with CXCL14(15-77) (domain or fragment) SDVKKLEMKPKYPHCEEKMVIITTKSVSRYRGQEHCLHPKLQSTKRFIKWYNAWNEKRRVYEE
Marked response: 751

Exam item: Request the reported EC50, calcium mobilization, CHEM1 cells overexpressing MRGPRX2 associated with KSVSRYRGQEHCLHPKLQSTKRFIKWYNAWNEKRRVYEE (domain or fragment) [CXCL14(39-77)]
Marked response: 680
